molecular target: T1, GST-NEMO (UniProt Q9Y6K9 1-196); test: AlphaScreen or HTRF; competitive HTRF: GST-NEMO 20 nM, biotin-IKKβ(KK/RR) aa701-745 50 nM, streptavidin-d2 acceptor, anti-GST antibody-Tb donor; PBS pH 7.4, 1 mM TCEP, 0.01% Triton X-100; competitor peptide 0–100 μM; triplicates; settings: both partners purified
T1 construct: NF-κB essential modulator (NEMO), residues 1-196, from the vector pGEX4T3-NEMO(1-196); also called NEMO(1-196); NF-κB essential modulator; source: E. coli BL21 (DE3), purified (glutathione-agarose)
T1 sequence (Q9Y6K9 1-196): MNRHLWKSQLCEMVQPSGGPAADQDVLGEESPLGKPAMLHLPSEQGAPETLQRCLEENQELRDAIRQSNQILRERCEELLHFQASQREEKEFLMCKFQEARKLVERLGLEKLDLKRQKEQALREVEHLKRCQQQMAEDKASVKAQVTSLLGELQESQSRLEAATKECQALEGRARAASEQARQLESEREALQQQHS
endpointLabel: IC50

## Input Give the reported value of IC50 for this record: TALDWSWLQTE (NEMO peptides were made on Rink amide resin (C-terminal amide surmised); also called parent peptide (NEMO system); source: synthetic peptide) [NEMO-binding domain (NBD) of IKKβ]
## Output > 100 µM

Attribution: paper PMC10882002
